biological target: Rabies virus glycoprotein G, strain CVS-11 (Challenge Virus Standard-11, ATCC VR 959) (Rabies virus, strain CVS-11); experiment: cell-based or functional assay
Measurement name: CVS neutralizing antibody titre (RFFIT): nM IC50 (nM)
Field format: number, assumed nM, no unit text.

214-E8 15GS 212-C12 (VHH) EVQLVESGGGSVQAGGSLRLSCAASGGTFNPYVMAWFRQAPGNEREFVARIRWSGGDAYYDDSVKGRFAITRDAAKNTVHLQMNSLKPEDTAVYYCAAATYGYGSYTYGGSYDLWGQGTQVTVSSGGGGSGGGGSGGGGSEVQLVESGGGLVQPGGSLRLSCAASGFTFGSSDMSWVRQAPGKGPEWVSGINSGGGRTLYADSVKGRFTISRDNAKNTLYLQMNSLKSEDTAVYYCATDLYGSSWYTDYWSQGTQVTVSS    3.69

Look up CVS neutralizing antibody titre (RFFIT): nM IC50: 213-H7 15GS 213-H7 (VHH) EVQLVESGGGLVQAGGSLRLSCAASGRTLSSYRMGWFRQAPGKEREFISTISWNGRSTYYADSVKGRFIFSEDNAKNTVYLQMNSLKPEDTAVYYCAAALIGGYYSDVDAWSYWGPGTQVTVSSGGGGSGGGGSGGGGSEVQLVESGGGLVQAGGSLRLSCAASGRTLSSYRMGWFRQAPGKEREFISTISWNGRSTYYADSVKGRFIFSEDNAKNTVYLQMNSLKPEDTAVYYCAAALIGGYYSDVDAWSYWGPGTQVTVSS 2.09
